We begin with a simple list: items and their reported IC50 at 24 h.
# TEST SUMMARY: MTT cytotoxicity evaluation on MCF-7 cells
# Type: cell-based
# SETTINGS: human, range 0~100 μM
# Description: Cells were incubated at 37 °C in an incubator with 5% CO2. Cell viability was determined using the MTT assay. Briefly, MCF-7 cell lines were seeded at 5000–8000 cells/well in 96-well plates. […] Following a continuous 24 h of incubation, the culture medium was replaced by 90 μL fresh culture medium, and 10 μL MTT solution was added.

Examples from the recorded data:
STRUCTURE AS SMILES	VALUE OBSERVED
COc1ccc(-c2noc(-c3ccc(C(C)(C)C)cc3)n2)cc1OC	≥ 100 µM
COc1ccc(-c2noc(-c3ccc(O)c(O)c3)n2)cc1OC	≥ 100 µM

Supply measured IC50 at 24 h of COc1cc(-c2noc(-c3ccc(C(C)(C)C)cc3)n2)cc(OC)c1OC in your reply.
≥ 100 µM

Supply measured IC50 at 24 h of Oc1cc(O)cc(-c2nc(-c3ccccc3)no2)c1 in your reply.
≥ 100 µM

Supply measured IC50 at 24 h of Oc1cccc(-c2nc(-c3ccccc3)no2)c1 in your reply.
≥ 100 µM

Supply measured IC50 at 24 h of COc1cc(/C=C/c2nc(-c3ccccc3)no2)cc(OC)c1OC in your reply.
≥ 100 µM

====

# Tested on: E. turcicum
# TEST SUMMARY: Mycelial growth inhibition test in vitro (E. turcicum)
# Format: cell-based
# SETTINGS: Exserohilum turcicum; 50 μg/mL, mean ± SD of three replicates; read-out: The Inhibition Rate (%) E. turcicum
Tag: fulfilled if measured inhibition at 50 µg/mL is not below 30%, not fulfilled if it is.

MOLECULE	CATEGORY LABEL
Oc1cc(O)cc(-c2nc(-c3ccccc3)no2)c1	not fulfilled
COc1cc(-c2noc(-c3ccc(Cl)cc3)n2)cc(OC)c1OC	not fulfilled
COc1cc(-c2noc(-c3ccc(C(C)(C)C)cc3)n2)cc(OC)c1OC	not fulfilled
O=[N+]([O-])c1ccc(-c2nc(-c3ccccc3)no2)cc1	not fulfilled
COc1cc(-c2noc(-c3cccc(O)c3)n2)cc(OC)c1OC	not fulfilled
Oc1cccc(-c2nc(-c3ccccc3)no2)c1	fulfilled

Reported inhibition at 50 µg/mL reaches at least 30% for C(=C\c1nc(-c2ccccc2)no1)/c1ccccc1 [Compound 5a, (E)-3-Phenyl-5-styryl-1,2,4-oxadiazole] ?
not fulfilled

Reported inhibition at 50 µg/mL reaches at least 30% for COc1ccc(-c2noc(-c3ccc(O)c(O)c3)n2)cc1OC ?
fulfilled

Reported inhibition at 50 µg/mL reaches at least 30% for FC(F)(F)c1ccc(-c2nc(-c3ccccc3)no2)cc1 ?
not fulfilled

Reported inhibition at 50 µg/mL reaches at least 30% for Clc1ccc(/C=C/c2nc(-c3ccccc3)no2)cc1 ?
not fulfilled

Reported inhibition at 50 µg/mL reaches at least 30% for COc1ccc(-c2noc(-c3cccc(O)c3)n2)cc1OC ?
not fulfilled

Reported inhibition at 50 µg/mL reaches at least 30% for COc1ccc(-c2nc(-c3cc(OC)c(OC)c(OC)c3)no2)cc1OC ?
not fulfilled

Reported inhibition at 50 µg/mL reaches at least 30% for COc1ccc(-c2nc(-c3ccccc3)no2)cc1OC ?
fulfilled

====

# Tested on: F. graminearum
# TEST SUMMARY: microbe, parasite or virus in culture
# Assay type: cell-based
# SETTINGS: Fusarium graminearum, read-out: The Inhibition Rate (%) F. graminearum
PROPERTY NAME: inhibition at 50 µg/mL

Examples from the recorded data:
STRUCTURE AS SMILES	inhibition at 50 µg/mL
COc1ccc(-c2noc(-c3ccc(Cl)cc3)n2)cc1OC	< 10%
Clc1ccc(/C=C/c2nc(-c3ccccc3)no2)cc1	< 10%

Note: attention shifts to another entry.
Supply measured inhibition at 50 µg/mL of COc1cc(-c2noc(-c3ccc(Cl)cc3)n2)cc(OC)c1OC in your reply.
< 10%

====

# Tested on: F. graminearum
# TEST SUMMARY: microbe, parasite or virus in culture
# Format: cell-based
# SETTINGS: Fusarium graminearum, read-out: The Inhibition Rate (%) F. graminearum
PROPERTY NAME: inhibition at 50 µg/mL

Examples from the recorded data:
COMPOUND	VALUE OBSERVED
C(=C\c1nc(-c2ccccc2)no1)/c1ccccc1 [Compound 5a, (E)-3-Phenyl-5-styryl-1,2,4-oxadiazole]	< 10%
COc1ccc(-c2noc(-c3ccc(Cl)cc3)n2)cc1	< 10%
COc1ccc(-c2nc(-c3ccc(OC)c(OC)c3)no2)cc1	< 10%

Note: attention shifts to another entry.
Supply measured inhibition at 50 µg/mL of COc1ccc(-c2noc(-c3ccc(C(C)(C)C)cc3)n2)cc1OC in your reply.
< 10%

====

# Test system: F. graminearum
# TEST SUMMARY: microbe, parasite or virus in culture
# Type: cell-based
# SETTINGS: Fusarium graminearum, read-out: The Inhibition Rate (%) F. graminearum
PROPERTY NAME: inhibition at 50 µg/mL (%)
The figure you give is taken to be in %; do not add the unit.

Examples from the recorded data:
STRUCTURE AS SMILES	READOUT UNITS	VALUE OBSERVED
COc1ccc(-c2noc(-c3ccc(OC)c(OC)c3)n2)cc1	%	21.7
COc1ccc(-c2noc(/C=C/c3ccccc3)n2)cc1	%	19

Note: attention shifts to another entry.
Supply measured inhibition at 50 µg/mL of COc1ccc(-c2nc(-c3ccccc3)no2)cc1OC in your reply.
23.8

====

# Test system: E. turcicum
# TEST SUMMARY: Mycelial growth inhibition test in vitro (E. turcicum)
# Assay type: cell-based
# SETTINGS: Exserohilum turcicum; 50 μg/mL, mean ± SD of three replicates; read-out: The Inhibition Rate (%) E. turcicum
PROPERTY NAME: inhibition at 50 µg/mL (%)
The figure you give is taken to be in %; do not add the unit.

Examples from the recorded data:
COMPOUND	TARGET UNDER TEST	PROPERTY NAME	READOUT UNITS	VALUE OBSERVED
CC(C)(C)c1ccc(-c2nc(-c3ccccc3)no2)cc1 [Compound 4c]	E. turcicum	inhibition at 50 µg/mL	%	30.1
COc1ccc(-c2noc(/C=C/c3ccccc3)n2)cc1OC [Compound 5e]	E. turcicum	inhibition at 50 µg/mL	%	29.4
Oc1cc(-c2nc(-c3ccccc3)no2)cc(O)c1O [Compound 4g]	E. turcicum	inhibition at 50 µg/mL	%	38.7
Clc1ccc(-c2nc(-c3ccccc3)no2)cc1 [Compound 4a]	E. turcicum	inhibition at 50 µg/mL	%	17.5
Oc1ccc(-c2nc(-c3ccccc3)no2)cc1O [Compound 4f]	E. turcicum	inhibition at 50 µg/mL	%	85.7

Note: attention shifts to another entry.
Send back E. turcicum inhibition at 50 µg/mL of COc1ccc(-c2noc(-c3ccc(C(C)(C)C)cc3)n2)cc1OC [Compound 4n] only.
29.8
